Biological target: T1, PUF4 RNA-binding domain (Saccharomyces cerevisiae, UniProt P25339 537-888)
T1 sequence: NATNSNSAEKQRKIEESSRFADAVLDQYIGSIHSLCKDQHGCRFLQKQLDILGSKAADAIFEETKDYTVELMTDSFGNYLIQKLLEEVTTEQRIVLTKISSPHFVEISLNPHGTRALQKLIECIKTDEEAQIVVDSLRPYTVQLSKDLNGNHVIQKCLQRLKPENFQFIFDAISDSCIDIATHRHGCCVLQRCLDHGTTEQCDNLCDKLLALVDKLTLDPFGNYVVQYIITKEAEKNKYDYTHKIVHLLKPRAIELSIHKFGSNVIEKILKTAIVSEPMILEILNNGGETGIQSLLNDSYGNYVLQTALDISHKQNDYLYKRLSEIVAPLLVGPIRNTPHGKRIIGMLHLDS
Experiment: Mg; RNA-MaP; 20 mM Na-HEPES pH 7.4, 30 mM KOAc, 0.75 mM MgCl2, 0.1% Tween-20, 5% glycerol, 0.1 mg/mL BSA, 2 mM DTT; 25 C; 0.0125-409.6 nM protein
Settings: tags: N-His6-TEV cleaved; C-SNAP kept, Cy3B-labelled; label: tethered on chip by stalled RNA polymerase
pKd: −log10 of the molar value.
Criterion: pKd meeting or surpassing 8. Met: y. Not met: n.

binder="ACAAACCAUAUAUUAUUAACACAAAC (ssRNA) [Id_ii_S3_P5E.3_K5.2_C5.2_[T-1A]_H5.2_A5.1_F5.1_T5.2_[T11A]_[A12C]]" class=n
binder="UCUCUUGUUAUAUAUUAUUUCUCUU (ssRNA) [Id_ii_S1_P4E.3_K4.2_C4.2_[C-2G]_H4.2_A4.1_F4.1_T4.2_[G10T]]" class=n
binder="UCUCUUCUUGCUCUCUAUAUAUAUCUCUU (ssRNA) [Ie_S1_P3E.2_K3.1_C3.2_H3.1_[+2CTCTC]_A3.1_F3.1_T3.2]" class=n
binder="UCUCUUUGUAUAUUACCCUCUCUU (ssRNA) [Ie_S1_P4E.1_K4.1_C4.1_H4.1_A4.1_F4.1_[+9CCC]_T4.1]" class=y

Query string: Could you please find out whether Id_ii_S2_P5E.3_K5.2_C5.2_[T-1A]_H5.2_A5.1_F5.1_T5.2_[T11C]_[A12T] (ssRNA) RNA: UUUGAUUAAUAUGAUAUCGUUCUUUCUCAUAUAUUAUUACUUUCUUUCUCGAUAUCAUAUUAAUCUUU has pKd that meets 8 or exceeds it?
Result string: n
